tested on: HOP-92 NSCLC; test: NCI tumour cell line growth inhibition, 48 h; in the data active = GI50 below about 0.43 µM; inactive = the rest
Answer with one of the outcomes active, inactive

O=C(OCc1ccc2c(Cl)cc(Cl)c(O)c2n1)c1cc2ccccc2[nH]1    active
CCCSC1=NC2C(N(CC)C(=O)N2CC)N1/N=C/C=C/c1ccccc1[N+](=O)[O-] (stereo not given)    inactive
COc1cc2nc3cc([N+](=O)[O-])ccc3c(NCCCNCC(C)(C)O)c2cc1OC    active
CCOC(=O)Nc1ccc(-c2nc(-c3cccc(OC)c3)c(-c3ccnc(Br)c3)[nH]2)cc1    inactive

Next, consider the following compound.
Per the records of this test, what outcome belongs to CCC[CH2][Sn]([CH2]CCC)([O]C(=O)C1CCC(=O)N1)[O]C(=O)C1CCC(=O)N1 (stereo not given) ?
active

---

test system: NCI/ADR-RES ovarian; experiment: NCI tumour cell line growth inhibition, 48 h
readout type: TGI

C#CCOc1cccc(Nc2ncnc3ccc(NC(=O)CCl)cc23)c1    > 100 µM
COc1cc(/C=C/c2cc(/C=C/c3ccc(O)c(OC)c3)oc(=O)c2)ccc1O    26.1 µM
COc1cc2c(cc1O)[C@@H]1Cc3c(cc(OC)c(OC)c3Oc3cc4c(cc3OC)CCN(C)[C@@H]4Cc3ccc(O)cc3)[C@H](C2)N1C    > 100 µM
O=C(c1ccccc1)c1nc2ccc(C(F)(F)F)cc2[n+]([O-])c1C(F)(F)F    > 100 µM
O=C(O)c1ccc2c(c1)nc(Nc1cccc(Cl)c1)c1ccncc12    > 80.1 µM

Batch request: TGI for each of the following molecules.
1. O=C(O)C1(Cc2cccc(Nc3nccs3)n2)CCC(Oc2cccc(Cl)c2F)CC1 (centres undefined)
2. CCN1C(=O)N(c2ccccc2)C2NN=c3s/c(=C4\C(=O)N(C(C)C)c5ccccc54)c(=O)n3C21 (centres undefined)

1: > 65.4 µM; 2: 3.84 µM

Batch request: TGI for each of the following molecules.
1. COC1=Nc2ccccc2S(=O)(=O)C=C1
2. C[C@H]1C(Oc2ccc(O)cc2)OC2OC3(C)CCC4[C@H](C)CCC1C24OO3 (some centres undefined)

1. 36.2 µM
2. 25.8 µM

---

Kindly state TGI for each of the entries shown.
tested on: IGROV1 ovarian; test: NCI tumour cell line growth inhibition, 48 h

Field: example entries. Status: answers known.
CCCCCCCCCCCCOC1C(CNC(=O)C2OC3OC(C)(C)OC3C2NC(=O)CN2CCCCCC2)OC2OC(C)(C)OC21 (centres undefined)    15.2 µM
CCOC(=O)Nc1ccc(-c2nc(-c3cccc(OC)c3)c(-c3ccnc(Br)c3)[nH]2)cc1    9.03 µM
O=C1CC(=O)N(CCc2ccccc2)S(=O)(=O)N1CCc1ccccc1    42 µM

Field: next compound
// CC(=O)OC1CC[C@]2(C)C3CC[C@@]4(C)C(CCC4[C@H](C)CCCC(C)C)[C@@H]3CCC2(Br)C1 (some centres undefined) : TGI value = 29.7 µM

---

Kindly state TGI for each of the entries shown.
tested on: OVCAR-3 ovarian; assay: NCI tumour cell line growth inhibition, 48 h

Field: example entries. Status: answers known.
O=C1CC(=O)N(CCc2ccccc2)S(=O)(=O)N1CCc1ccccc1    36.8 µM
O=C(Nc1ccccc1F)c1cc2ccc(O)cc2oc1=Nc1cccc(C(F)(F)F)c1    > 100 µM
N#CC(Cc1ccccc1Br)N(CCC1=CCCCC1)C(c1ccccc1)c1ccccc1 (stereo not drawn)    > 100 µM

Batch request: TGI for each of the following molecules.
1. COc1ccc(C(=O)/C=C/c2ccc(OCC(=O)N3CCN(c4ccccc4)CC3)cc2)cc1
2. NCCN1CC2CCC(CC2)C1
3. COc1ccc(CNc2nc3c(NC(C)=O)cc(C(F)(F)F)cc3nc2-c2ccccc2)cc1OC
4. Nc1nc(N)c2nc(CNc3ccc(C(=O)NC(CCCNC(=O)c4ccccc4C(=O)O)C(=O)O)cc3)cnc2n1 (stereo not drawn)
5. CCCCC#CC#Cc1cccc(=O)o1

1: > 100 µM; 2: > 10 µM; 3: > 100 µM; 4: > 100 µM; 5: 69.6 µM

---

Kindly state TGI for each of the entries shown.
tested on: K-562 leukemia; experiment: NCI tumour cell line growth inhibition, 48 h
Answers are plain numbers, in µM.

Field: example entries. Status: answers known.
C#Cc1cccc(Nc2nc3ccc([N+](=O)[O-])cc3nc2Nc2cccc(C#C)c2)c1    0.7
C/C(Cc1ccc(Cl)cc1)=C(/c1ccc(Cl)cc1)c1ccc(OCCN(C)C)cc1    5.83
CCc1nc(Cl)nc(Cl)c1Cl    3.62
S=c1sc2nc(Cl)nc(Cl)c2s1    28.1

Field: next molecule
// Cc1ccc(S(=O)(=O)N2CCCC2C(=O)O[C@H]2CC[C@H]3CC=C[C@H]32)cc1 (some centres not stated) : TGI value = 78.9

---

Kindly state TGI for each of the entries shown.
test system: SF-268 CNS; experiment: NCI tumour cell line growth inhibition, 48 h

Batch request: TGI for each of the following compounds.
1. NC(=O)c1[nH]cnc1/N=N/SCC(N)C(=O)O (stereo unspecified)
2. CCc1nc(N)nc(N)c1-c1ccc(NCCc2ccccc2)c([N+](=O)[O-])c1
3. NC(=Nc1ccc(O)cc1)S(=O)O
4. CNCCCNc1nc2ccccc2c2c(=O)c3cc(Cl)ccc3sc12

> 100 µM
> 62.5 µM
> 100 µM
3.01 µM

---

system: SK-MEL-28 melanoma; experiment: NCI tumour cell line growth inhibition, 48 h
readout type: TGI (µM)
Answers are plain numbers, in µM.

C=CCNC1=C2C[C@@H](C)C[C@@H](OC)[C@H](OC(=O)CN)[C@H](C)/C=C(\C)[C@@H](OC(N)=O)[C@H](OC)/C=C\C=C(/C)C(=O)NC(=CC1=O)C2=O    29.7
C/C(Cc1ccc(Cl)cc1)=C(/c1ccc(Cl)cc1)c1ccc(OCCN(C)C)cc1    9.29
COC(=O)[C@@H]1C[C@H]([Se]c2ccccc2)CN1C(=O)OCc1ccccc1    69.2

Batch request: TGI for each of the following compounds.
1. COc1cnc2c(c1)C(=O)c1c-2n(CCCN2CCCC2)c(=O)c2cc(F)ccc12
2. CCOC(=O)/C=C(/C(=O)OCC)n1ccc(=O)n(/C(=C/C(=O)OCC)C(=O)OCC)c1=O

14.7
27.9

---

system: MDA-MB-231 breast; assay: NCI tumour cell line growth inhibition, 48 h; in the data active = GI50 below about 0.43 µM; inactive = the rest
Answer with one of the outcomes 1 for active, 0 for inactive

C=C(C)[C@@H]1CC[C@]2(COC3CCCCO3)CC[C@]3(C)[C@H](CC[C@@H]4[C@@]5(C)C=C(C=O)C(=O)C(C)(C)[C@@H]5CC[C@]43C)[C@@H]12 (some centres not stated)    0
Cc1cc(C)nc(SC2=C(Nc3cccc(Cl)c3C)C(=O)N(Cc3ccccc3)C2=O)n1    0
CC(=O)[O][Hg][c]1ccccc1    0
CN(CCCl)c1ccc(/C=C/C2=[N+](C)c3ccccc3C2(C)C)cc1    0
O=C(c1ccccc1)c1nc2ccc(C(F)(F)F)cc2[n+]([O-])c1C(F)(F)F    0
O=C(Oc1ccccc1Cl)c1ccccc1Nc1ccnc(C(F)(F)F)c1    1
CCCSC1=NC2C(N(CC)C(=O)N2CC)N1/N=C/C=C/c1ccccc1[N+](=O)[O-] (configuration not stated)    0
O=C(OCc1ccc2c(Cl)cc(Cl)c(O)c2n1)c1cc2ccccc2[nH]1    1
COc1ccc2c(c1)[n+](=O)c(C(=O)/C=C/c1cc(OC)c(OC)c(OC)c1)c(C)n2[O-]    0
C=C1C(=O)O[C@H]2[C@H]1CC/C(COC(=O)c1ccc(C#N)cc1)=C\CC[C@@]1(C)O[C@@H]21    0

Per the records of this test, what outcome belongs to C[C@H]1C(Oc2ccc(O)cc2)OC2OC3(C)CCC4[C@H](C)CCC1C24OO3 (some centres not stated) ?
0

Per the records of this test, what outcome belongs to O=C(O)C1(Cc2cccc(Nc3nccs3)n2)CCC(Oc2cccc(Cl)c2F)CC1 (configuration not stated) ?
0

---

test system: HCC-2998 colon; assay: NCI tumour cell line growth inhibition, 48 h; in the data active = GI50 below about 0.43 µM; inactive = the rest
Answer with one of the outcomes active, inactive

Examples with answers:
N#Cc1ccc(C(c2ccc(C#N)cc2)n2cncn2)cc1    inactive
Cc1ccc(S(=O)(=O)Cc2nc(-c3ccc(C(=O)NCc4cccnc4)cc3)oc2C)cc1    inactive
COc1ccc(-c2ccc(/C=N/n3c(C)nn(CN4CCN(C)CC4)c3=S)o2)c([N+](=O)[O-])c1    inactive

Per the records of this test, what outcome belongs to `C#Cc1cccc(Nc2nc3ccc([N+](=O)[O-])cc3nc2Nc2cccc(C#C)c2)c1` ?
active

Per the records of this test, what outcome belongs to `COc1ccc(Cn2cc3c(c2-c2cc(OC)c(OC)c(OC)c2)CCc2cnoc2-3)cc1[N+](=O)[O-]` ?
inactive
